- experiment: Drug uptake in normal healthy human at 600 mg, po qd after 24 hrs
- Assay type: ADME, organism-based
- experimentalParameters: in vivo, read-out: Drug uptake
reportedProperty: concentration at 24 h (ng/mL)

{"columns": ["compound", "experimentalValue"],
 "data": [
  ["CC1(C)OCCn2c1nc(C(=O)NCc1ccc(F)cc1)c(O)c2=O", 340]
]}

----------
- measurementTarget: Human immunodeficiency virus type 1 integrase (Human immunodeficiency virus 1)
- Sequence (Q7ZJM1 whole entry): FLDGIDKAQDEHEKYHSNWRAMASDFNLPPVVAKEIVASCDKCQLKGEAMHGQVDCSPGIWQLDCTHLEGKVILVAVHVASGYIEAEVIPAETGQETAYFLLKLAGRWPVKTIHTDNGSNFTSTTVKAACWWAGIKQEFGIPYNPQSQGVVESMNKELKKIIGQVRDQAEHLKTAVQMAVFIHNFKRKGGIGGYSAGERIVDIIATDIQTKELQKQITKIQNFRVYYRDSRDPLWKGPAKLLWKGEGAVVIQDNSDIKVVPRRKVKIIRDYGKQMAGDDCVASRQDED
// returns class 0 unless IC50 is strictly below 4 nM, in which case class 1

{"columns": ["compound", "measurementTarget", "class"],
 "data": [
  ["Cc1cc(CNC(=O)c2nc3n(c(=O)c2O)CCOC3(C)C)ccc1F", "Human immunodeficiency virus type 1 integrase (Human immunodeficiency virus 1)", "class 1"],
  ["CNC(=O)c1cc(F)ccc1CNC(=O)c1nc2n(c(=O)c1O)CCOC2(C)C", "Human immunodeficiency virus type 1 integrase (Human immunodeficiency virus 1)", "class 0"],
  ["CC1(C)OCCn2c1nc(C(=O)NCc1ccc(F)cc1N1CCCCS1(=O)=O)c(O)c2=O", "Human immunodeficiency virus type 1 integrase (Human immunodeficiency virus 1)", "class 0"],
  ["CC1(C)OCCn2c1nc(C(=O)NCc1ccc(F)cc1N1CCOCC1)c(O)c2=O", "Human immunodeficiency virus type 1 integrase (Human immunodeficiency virus 1)", "class 0"]
]}
